Overview of recorded melting point for various compounds

Example cases with answers are listed next.
>>> result("CC(C)(C)c1cccc(C[C@H]2NC(=O)O[C@H]2c2cccc(Cl)c2)c1 (racemic)")
"136 to 137 °C"
>>> result("CCc1cn(C(C)C(=O)N(C)C)nc1-c1ccccc1 (stereo unspecified)")
"73.5 to 75 °C"
>>> result("COc1cc(Nc2c(C#N)cnc3cc(OC)c(Br)cc23)c(Cl)cc1Cl")
"256 to 257 °C"

Q: Look up melting point of COc1cnc(C#N)c(C)c1 and report it.
Result: 80 to 81 °C

Q: Look up melting point of CC1(CNC(=O)CCl)OCCO1 and report it.
Result: 128 to 130 °C

Q: Look up melting point of COc1ccc(-c2csc(C(=O)O)n2)cc1OC1CC2CCC1C2 (stereo unspecified) and report it.
Result: 112 to 113 °C

Q: Look up melting point of C[C@@H]1Cc2cc([N+](=O)[O-])ccc2N1 and report it.
Result: 63 to 64 °C

Q: Look up melting point of NNC(=O)c1ncn2ccccc12 and report it.
Result: 189 °C

Q: Look up melting point of CCC(CC)N(Cc1ccc(C#N)cc1)S(=O)(=O)c1ccc(Cl)cc1 and report it.
Result: 123 to 125 °C

Q: Look up melting point of CCNc1nc(C)c(-c2ccnc(Nc3ccc(N4CCNCC4)cc3)n2)s1 and report it.
Result: 245 to 247 °C

Q: Look up melting point of CCOC(=O)CCCCOc1ccc([N+](=O)[O-])c(C=C2NC(=O)NC2=O)c1 and report it.
Result: 127 to 129 °C

* * *

Overview of recorded melting point for various compounds

Example cases with answers are listed next.
>>> result("CCOC(=O)C1=C(N)NC2=C(C(=O)CCC2)C1c1cccc2ccccc12 (configuration not stated)")
"279 °C"
>>> result("Cc1nc(N)c2nc(CONC(C)C)n(CCCCNC(=O)C(C)C)c2c1C")
"156 to 157 °C"
>>> result("O=c1[nH]c2cc(Cl)ccc2c(=O)n1S(=O)(=O)c1ccc([N+](=O)[O-])cc1")
"> 250 °C"
>>> result("NC(=S)NC[C@H]1CN(c2ccc(-n3cncn3)cc2)C(=O)O1")
"214 to 215 °C"
>>> result("Cn1c(Br)c(Br)c(C#N)c1Br")
"151 to 152 °C"
>>> result("C#CCN(c1c(Br)cc(Br)cc1Br)[N+](=O)[O-]")
"58 to 58.5 °C"
>>> result("c1ccc(-c2nsc(N3CCN(c4ccccn4)CC3)n2)cc1")
"137 to 138 °C"
>>> result("O=c1cc(-c2ccsc2)c2ccc(CCl)cc2o1")
"125 to 127 °C"

Q: Look up melting point of O=C(O)c1cc(Br)c(Cl)s1 and report it.
Result: > 200 °C

Q: Look up melting point of O=C1c2ccc(N3CCCC3)c3cc(Br)cc(c23)C(=O)N1O and report it.
Result: 234 to 235 °C

Q: Look up melting point of CSc1ccc(NC(=O)CCCCCSc2nc3ccccc3o2)c(SC)n1 and report it.
Result: 125 to 126 °C

Q: Look up melting point of CCCn1ccnc(S(=O)(=O)Cc2ccc(Cl)cc2)c1=O and report it.
Result: 125 to 128 °C

Q: Look up melting point of O=C(C(Cl)c1ccccc1)N1CCCC1 (configuration not stated) and report it.
Result: 88.5 °C

Q: Look up melting point of CCOCn1c(C(N)=O)c(OC(C)C)c2cc(OC)ccc21 and report it.
Result: 110 to 112 °C

Q: Look up melting point of CN1CCC(c2cc3cc(C4(O)CCCCC4)ccc3o2)CC1 and report it.
Result: 155 to 157 °C

* * *

TEST READOUT: melting point

Example cases with answers are listed next.
>>> result("CC(Oc1ccc(F)cc1F)c1ccnc2ncnn12 (stereo not given)")
"96 to 97 °C"
>>> result("CCOC(=O)c1nnc2n1-c1ccccc1C(c1ccccc1F)=NC2")
"195 to 197 °C"
>>> result("CS(=O)(=O)c1cccc(NC(=O)c2cnn3c(C(F)(F)F)cc(-c4ccc(C(F)(F)F)c(F)c4)nc23)c1")
"246 °C"
>>> result("O=C1C(=O)c2ccccc2C2=C1SCC1(CCN(CC(O)c3ccccc3)CC1)O2 (stereo not given)")
"193 to 195 °C"

Shift focus to the following entry.
Q: Look up melting point of Cc1cnnc2c1C(=O)CC(c1ccsc1)C2 (stereo not given) and report it.
Result: 125 to 126 °C

* * *

TEST READOUT: melting point

Example cases with answers are listed next.
>>> result("CCOC(=O)c1ccc(C(=O)O)c2c([N+](=O)[O-])cccc12")
"178 to 180 °C"
>>> result("C=Cc1cc(C(=O)OC)c(NC(C)=O)cc1C(F)(F)F")
"79 to 81 °C"
>>> result("COc1ccc(C=O)cc1-c1nsc2ccc(-n3c(=O)cc(C(F)(F)F)n(C)c3=O)cc12")
"118 to 120 °C"
>>> result("CC(C)(CC(=O)O)c1ccccc1SSc1ccccn1")
"122 to 125 °C"

Shift focus to the following entry.
Q: Look up melting point of COc1cc(COc2nn(Cc3ccccc3)cc2C=O)ccc1OCc1nc(-c2ccco2)oc1C and report it.
Result: 139 to 140 °C

* * *

Overview of recorded melting point for various compounds

Example cases with answers are listed next.
>>> result("CCn1c2ccccc2c2cc3ccccc3c(C=O)c21")
"95.5 to 96.5 °C"
>>> result("CCOC(=O)c1ccc2oc(CC)nc2c1")
"35 to 37 °C"
>>> result("O=C(O)Cc1cc(C(=O)c2ccccc2F)ccc1O")
"102 °C"
>>> result("COc1ccc(S(=O)CC(C)=O)cc1 (single isomer, unassigned; (-))")
"56 to 58 °C"

Q: Look up melting point of CC(C)N1C(=O)c2cnc(-c3ccccc3)nc2N(C(=O)CN2CCCCC2)c2ccccc21 and report it.
Result: 152 to 154 °C

* * *

Overview of recorded melting point for various compounds

Example cases with answers are listed next.
>>> result("COc1cc2c(Nc3ccc(Sc4nccn4C)c(Cl)c3)c(C#N)cnc2cc1N(C)CCCN(C)C")
"196 to 201 °C"
>>> result("O=C1CCCC(=O)N1c1ccncc1")
"153 to 155 °C"

Q: Look up melting point of N#CC1CN1C(=O)c1ccc(Cl)cc1Cl (stereo not given) and report it.
Result: 95 to 97 °C

Q: Look up melting point of O=C(N1CCc2cc(S(=O)(=O)Cl)ccc2C1)C(F)(F)F and report it.
Result: 110 to 112 °C

Q: Look up melting point of CCCc1nn(C)c2c1N=C(c1cc(/C=C/C(=O)N(C)C)ccc1OCC)NC2 and report it.
Result: 219 to 221 °C

Q: Look up melting point of CCCC12C3=CCC4CC(OC(C)=O)CCC4(C)C3CCC1(C)C(C(C)CCCC(C)C)CC2O (stereo not given) and report it.
Result: 104 °C

Q: Look up melting point of CCC/C=C/C(=O)NC(=O)OC(C)(C)C and report it.
Result: 71 to 72 °C

Q: Look up melting point of CC(=O)N(c1cccc(Oc2ccccc2)c1)C(C)C(=O)O (stereo not given) and report it.
Result: 145 to 146 °C

Q: Look up melting point of Cc1nnc(-c2ccnc(NC(=O)OC(C)(C)C)c2)o1 and report it.
Result: 290 to 291 °C

Q: Look up melting point of COC(=O)c1ccc(Cl)c(C2(O)C(=O)N(Cc3ccc(OC)cc3OC)c3ccc(Cl)cc32)c1 (stereo not given) and report it.
Result: 56 °C

* * *

Overview of recorded melting point for various compounds

Example cases with answers are listed next.
>>> result("NS(=O)(=O)c1ccc(-n2nc(C(F)F)cc2-c2ccc(Cl)cc2)cc1")
"185 to 186 °C"
>>> result("CCOc1cc(OCCCCc2cn(-c3ccc(C(F)(F)F)cn3)nc2OCC)ccc1CCC(=O)O")
"101 to 102 °C"
>>> result("CS(=O)(=O)c1ccc(C(=O)NCc2ccc3c(c2)CN(C2CCC(=O)NC2=O)C3=O)cc1 (centres undefined)")
"260 to 262 °C"
>>> result("Cc1ccc(C)n1-c1ccc2ccc3c([nH]c(=O)c(=O)n3CC(=O)NCc3ccccc3)c2c1")
"> 290 °C"
>>> result("N#CC(=CN1CCOCC1)C(C[N+](=O)[O-])c1cccc(Cl)c1Cl (centres undefined)")
"74 to 77 °C"
>>> result("COc1ccc2cc(C(=O)NC3N=C(c4ccccc4)c4ccccc4-n4c(C)nnc43)[nH]c2c1 (centres undefined)")
"160 to 170 °C"
>>> result("Cc1sc(-c2ccc(F)cc2)nc1O")
"173 to 174 °C"
>>> result("O=C(CO)Nc1nc(-c2ccc(Br)cc2)cs1")
"222 to 224 °C"
>>> result("C[C@H](C=C[C@H](C)[C@H](C)CO)[C@H]1CC[C@H]2C3=CCC4CC(=O)CC[C@]4(C)[C@H]3CC[C@]12C (some centres undefined)")
"192 to 193 °C"
>>> result("CCOC(=O)N(CC)c1c(OC)cc(Cc2cnc(N)nc2N)cc1OC")
"165 to 167 °C"

Q: Look up melting point of COCCNC(=O)c1ccc(/C=C/C(=O)O)cc1 and report it.
Result: 205 °C

Q: Look up melting point of CCOC(=O)c1cnc2ccc(F)cc2c1O and report it.
Result: > 260 °C

Q: Look up melting point of COc1cc(NS(=O)(=O)c2ccc(Cl)cc2)c(C(=O)Cl)cc1OC and report it.
Result: 175 to 177 °C
